# experimental_protocol: Ocular tissue concentrations (aqueous humor, vitreous humor, iris, retina, choroid, cornea) after topical ocular, subcutaneous and intravitreal administration
# Type: in vivo, New Zealand White rabbits
# conditions: New Zealand White, rabbit, retina, other: intravitreal, 2.5 mg/eye, Retina, 24 hr, OS; sodium salt, intravitreal 2.5 mg/eye, Group 4; read-out: Retina Conc. (ng/g) OS
recorded_metric: concentration at 24 h (ng/g)
Give the value in ng/g but do not write ng/g after it.

**Q:** Return concentration at 24 h for the following molecule: `COC(=O)N[C@@H](Cc1ccccc1)C(=O)N[C@@H](Cc1ccc(NS(=O)(=O)O)cc1)c1csc(-c2cccs2)n1`
**A:** 308000
